biological target: SARS-CoV-2 S2 protein (SARS-CoV-2, UniProt P0DTC2 686-1213)
MEASUREMENT_TYPE: Kd (nM)
Report the figure in nM without appending any unit label.

Sure, the documented Kd for AB-009710 (antibody, V domains shown) VH: LVQLIQSGAEVVKPGSSVKVSCTASGGSYSSYTLSWVRQAPGQGVEWLGRISPVLNTTYYAQKLEGRVTMTADESTSTVYMQLSSLRSEDTAVYYCARLASMNGVDIWGQGTSVTVSS VL: EIVLTQSPGTLSLSPGERATLSCRASQSVYGSYLAWYQQKPGQAPRLLIYGGSSRATGIPDRFSGSGSGTDFTLTISRLEPEDFAVYYCHQYGTSRYSFGQGTKLDIK is 46.8
